Tested on: Streptococcus pneumoniae ATCC 51422
run-description: NCCLS broth microdilution MIC
Format: cell-based
cond: Col. E = S. pneumoniae ATCC 51422 (PRSP)
From the text: In vitro antibacterial activity data were collected for the following Gram-positive bacteria: Staphylococcus aureus (ATCC 27660, ATCC 33591 and ATCC 43300, all methicillin resistant strains (MRSA's)); Streptococcus pneumoniae (ATCC 51422, a penicillin resistant strain (PRSP)), Enterococcus faecium (ATCC 51559, and/or a vancomycin resistant strain (VRE)). Additionally, antifungal activity data were collected for Candida albicans (ATCC 38247). […]

molecule	Minimum Inhibitory Concentration (MIC)
Cn1cc(NC(=O)c2cc(NC(=O)c3cc(NC(=O)c4ccc(F)cc4F)cn3C)cn2C)cc1C(=O)NCCN1CCCCCC1 [Compound 15]	++ (++ = MIC ≦ 1)
Cn1cc(NC(=O)c2cc(NC(=O)c3cc(NC(=O)c4sc5ccccc5c4Cl)c[nH]3)cn2C)cc1C(=O)NCCN1CCOCC1 [Compound 9]	++ (++ = MIC ≦ 1)
Cn1cc(NC(=O)c2cc3ccccc3cn2)cc1C(=O)Nc1cc(C(=O)Nc2cc(C(=O)NCCN3CCCCC3)ns2)n(C)c1 [Compound 19]	++ (++ = MIC ≦ 1)

---

System: S. aureus ATCC 27660
run-description: NCCLS broth microdilution MIC
Format: cell-based, Staphylococcus aureus
cond: Col. A = S. aureus ATCC 27660 (MRSA)
readout-kind: Minimum Inhibitory Concentration (MIC)

Answered examples (4):
compound-structure-string	Minimum Inhibitory Concentration (MIC)
CN(C)CCCNC(=O)CCNC(=O)c1cc(NC(=O)c2cc(NC(=O)CCNC(=O)c3cc(NC(=O)c4cc(NC(=O)c5cc(Br)c(Br)s5)cn4C)cn3C)cn2C)cn1C	++ (++ = MIC ≦ 1)
Cn1cc(NC(=O)c2cc(NC(=O)c3cc(NC(=O)c4sc5ccccc5c4Cl)cn3C)cn2C)cc1C(=O)NCCN1CCOCC1	++ (++ = MIC ≦ 1)
Cn1cc(NC(=O)c2cc(NC(=O)c3cc(NC(=O)c4ccc(Cl)cc4F)c[nH]3)cn2C)cc1C(=O)NCCN1CCOCC1	+ (+ = MIC ≦ 2)
Cn1cc(NC(=O)c2cc(NC(=O)c3cc(NC(=O)c4sc5ccccc5c4Cl)c[nH]3)cn2C)cc1C(=O)NCCN1CCOCC1	++ (++ = MIC ≦ 1)

The reported Minimum Inhibitory Concentration (MIC) of the compound Cn1cc(NC(=O)c2cc(NC(=O)c3cc(NC(=O)c4sccc4Cl)cn3C)cn2C)cc1C(=O)NCCN1CCSCC1 was + (+ = MIC ≦ 2)

---

test-system: target sequence GACAATTAATCA (352 bp fragment, Plasmid C)
run-description: Quantitative DNase I footprint titration
cond: 352 bp C, 22° C., pH 7.0, read-out: Dissociation Constant Kd
From the text: Compounds (1) through (20) according to this invention were screened for their ability to bind to specified DNA target sequences, using DNase I footprinting. Generally, the procedure described in Dervan, WO 98/50582 (1998), was followed. […] The 351 base pair dsDNA restriction fragment (SEQ ID NO. IV) of Plasmid A contained the target sequences AAAAAGCAAAAA, AAAAAGACAAAAA, and AAAAAGTACAAAAA. […] These fragments were used for quantitative DNase I footprinting experiments. […]
pKd: recorded values
Give only the number. pKd is defined as minus log10 of concentration in molar units.

compound-structure-string	pKd
CN(C)CC(C)(C)CNC(=O)CCNC(=O)c1cc(NC(=O)c2cc(NC(=O)CCNC(=O)c3cc(NC(=O)c4cc(NC(=O)c5cc(Br)c(Br)s5)cn4C)cn3C)cn2C)cn1C	8.70

// next item, pKd requested
Here Cn1cc(NC(=O)c2cc(NC(=O)c3cc(NC(=O)c4sc5ccccc5c4Cl)c[nH]3)cn2C)cc1C(=O)NCCN1CCOCC1 was tested on target sequence GACAATTAATCA (352 bp fragment, Plasmid C), and its pKd came to 10.00

---

test-system: target sequence ATTACT (310 bp fragment, Plasmid B)
run-description: Quantitative DNase I footprint titration
cond: 310 bp B, 22° C., pH 7.0, read-out: Dissociation Constant Kd
Excerpt: Compounds (1) through (20) according to this invention were screened for their ability to bind to specified DNA target sequences, using DNase I footprinting. Generally, the procedure described in Dervan, WO 98/50582 (1998), was followed. […] The 351 base pair dsDNA restriction fragment (SEQ ID NO. IV) of Plasmid A contained the target sequences AAAAAGCAAAAA, AAAAAGACAAAAA, and AAAAAGTACAAAAA. […] These fragments were used for quantitative DNase I footprinting experiments. […]
readout-kind: Kd (nM)
Express the result in nM but write the number alone.

The reported Kd of the compound Cc1cc(NC(=O)c2cc(NC(=O)c3cc(NC(=O)c4nsc(NCCN5CCCCC5)c4Cl)cn3C)cn2C)sn1 was 5

---

test-system: target sequence TGACAATTAAT (352 bp fragment, Plasmid C)
run-description: Quantitative DNase I footprint titration
cond: 352 bp C, 22° C., pH 7.0, read-out: Dissociation Constant Kd
Kd: recorded values
Express the result in nM but write the number alone.

Answered examples (3):
compound-structure-string	Kd, nM
Cn1cc(NC(=O)c2cc(NC(=O)CCNC(=O)c3cc(NC(=O)c4cc(NC(=O)c5cc(Br)c(Br)s5)cn4C)cn3C)cn2C)cc1C(=O)NCCC(=O)NCCN1CCCCC1	2
CN(C)CCCNC(=O)CCNC(=O)c1cc(NC(=O)c2cc(NC(=O)CCNC(=O)c3cc(NC(=O)c4cc(NC(=O)c5cc(Br)c(Br)s5)cn4C)cn3C)cn2C)cn1C	2
CC(C)N(CCNC(=O)CCNC(=O)c1cc(NC(=O)c2cc(NC(=O)CCNC(=O)c3cc(NC(=O)c4cc(NC(=O)c5cc(Br)c(Br)s5)cn4C)cn3C)cn2C)cn1C)C(C)C	10

// next item, Kd requested
The reported Kd of the compound CCN(CC)CCCNC(=O)CCNC(=O)c1cc(NC(=O)c2cc(NC(=O)CCNC(=O)c3cc(NC(=O)c4cc(NC(=O)c5cc(Br)c(Br)s5)cn4C)cn3C)cn2C)cn1C was 10

---

Test system: Candida albicans ATCC 38247
run-description: Antifungal MIC
Assay type: cell-based
cond: Col. F = C. albicans ATCC 38247
Minimum Inhibitory Concentration (MIC): recorded values

Answered examples (3):
molecule	test-system	readout-kind	readout-value
Cn1cc(NC(=O)c2cc(NC(=O)c3cc(NC(=O)c4sc5ccccc5c4Cl)cn3C)cn2C)cc1C(=O)NCCN1CCOCC1 [Compound 8]	Candida albicans ATCC 38247	Minimum Inhibitory Concentration (MIC)	>32 µg/mL
Cn1cc(NC(=O)c2cc(NC(=O)c3cc(NC(=O)c4ccc(Cl)cc4F)c[nH]3)cn2C)cc1C(=O)NCCN1CCOCC1 [Compound 10]	Candida albicans ATCC 38247	Minimum Inhibitory Concentration (MIC)	8 to 32 µg/mL
Cn1cc(NC(=O)c2sc3ccccc3c2Cl)cc1C(=O)Nc1cc(C(=O)NCCN2CCCCC2)n(CCN2CCOCC2)c1 [Compound 16]	Candida albicans ATCC 38247	Minimum Inhibitory Concentration (MIC)	4 µg/mL

The reported Minimum Inhibitory Concentration (MIC) of the molecule CCN(CC)CCCNC(=O)CCNC(=O)c1cc(NC(=O)c2cc(NC(=O)CCNC(=O)c3cc(NC(=O)c4cc(NC(=O)c5cc(Br)c(Br)s5)cn4C)cn3C)cn2C)cn1C [Compound 4] was >32 µg/mL

The reported Minimum Inhibitory Concentration (MIC) of the molecule Cn1cc(NC(=O)c2sccc2Cl)cc1C(=O)Nc1cc(-c2nc3ccc(C(=O)NCCN4CCOCC4)cc3[nH]2)n(C)c1 [Compound 12] was >32 µg/mL

The reported Minimum Inhibitory Concentration (MIC) of the molecule Cn1cc(NC(=O)c2cc(NC(=O)c3cc(NC(=O)c4cc5ccccc5cn4)cn3C)cn2C)cc1C(=O)NCCc1cccnc1 [Compound 14] was >32 µg/mL

---

test-system: target sequence AAAAAGACAAAAA (351 bp fragment, Plasmid A)
run-description: Quantitative DNase I footprint titration
cond: 351 bp A, 22° C., pH 7.0, read-out: Dissociation Constant Kd
readout-kind: pKd
Give only the number. pKd is defined as minus log10 of concentration in molar units.

The reported pKd of the compound CN(C)CCCNC(=O)CCNC(=O)c1cc(NC(=O)c2cc(NC(=O)CCNC(=O)c3cc(NC(=O)c4cc(NC(=O)c5cc(Br)c(Br)s5)cn4C)cn3C)cn2C)cn1C was 11.00

---

Tested on: S. aureus ATCC 33591
run-description: NCCLS broth microdilution MIC
Format: cell-based, Staphylococcus aureus
cond: Col. B = S. aureus ATCC 33591 (MRSA)
readout-kind: Minimum Inhibitory Concentration (MIC)

Answered examples (4):
compound	readout-kind	readout-value
CN(C)CCCNC(=O)CCNC(=O)c1cc(NC(=O)c2cc(NC(=O)CCNC(=O)c3cc(NC(=O)c4cc(NC(=O)c5cc(Br)c(Br)s5)cn4C)cn3C)cn2C)cn1C [Compound 1]	Minimum Inhibitory Concentration (MIC)	+ (+ = MIC ≦ 2)
Cn1cc(NC(=O)c2cc(NC(=O)c3cc(NC(=O)c4sc5ccccc5c4Cl)cn3C)cn2C)cc1C(=O)NCCN1CCOCC1 [Compound 8]	Minimum Inhibitory Concentration (MIC)	++ (++ = MIC ≦ 1)
CC(C)N(CCNC(=O)CCNC(=O)c1cc(NC(=O)c2cc(NC(=O)CCNC(=O)c3cc(NC(=O)c4cc(NC(=O)c5cc(Br)c(Br)s5)cn4C)cn3C)cn2C)cn1C)C(C)C [Compound 2]	Minimum Inhibitory Concentration (MIC)	− (− = MIC > 2)
Cn1cc(NC(=O)c2cc(NC(=O)c3cc(NC(=O)c4ccc(F)cc4F)cn3C)cn2C)cc1C(=O)NCCN1CCCCCC1 [Compound 15]	Minimum Inhibitory Concentration (MIC)	− (− = MIC > 2)

The reported Minimum Inhibitory Concentration (MIC) of the compound Cn1cc(NC(=O)c2cc(NC(=O)c3cc(NC(=O)c4sc5ccccc5c4Cl)c[nH]3)cn2C)cc1C(=O)NCCN1CCOCC1 [Compound 9] was ++ (++ = MIC ≦ 1)

The reported Minimum Inhibitory Concentration (MIC) of the compound Cn1cc(NC(=O)c2cc(NC(=O)c3cc(NC(=O)c4sccc4Cl)cn3C)cn2C)cc1C(=O)NCCN1CCOCC1 [Compound 6] was + (+ = MIC ≦ 2)

The reported Minimum Inhibitory Concentration (MIC) of the compound Cn1cc(NC(=O)c2cc3ccccc3cn2)cc1C(=O)Nc1cc(C(=O)Nc2cc(C(=O)NCCN3CCOCC3)n(CCN3CCOCC3)c2)n(C)c1 [Compound 17] was − (− = MIC > 2)

The reported Minimum Inhibitory Concentration (MIC) of the compound CN(C)CC(C)(C)CNC(=O)CCNC(=O)c1cc(NC(=O)c2cc(NC(=O)CCNC(=O)c3cc(NC(=O)c4cc(NC(=O)c5cc(Br)c(Br)s5)cn4C)cn3C)cn2C)cn1C [Compound 5] was ++ (++ = MIC ≦ 1)

The reported Minimum Inhibitory Concentration (MIC) of the compound Cn1cc(NC(=O)c2cc(NC(=O)c3cc(NC(=O)c4ccc(Cl)cc4F)c[nH]3)cn2C)cc1C(=O)NCCN1CCOCC1 [Compound 10] was − (− = MIC > 2)

The reported Minimum Inhibitory Concentration (MIC) of the compound Cn1cc(NC(=O)c2sc3ccccc3c2Cl)cc1-c1nc2ccc(C(=O)NCCN3CCCCC3)cc2[nH]1 [Compound 18] was ++ (++ = MIC ≦ 1)

The reported Minimum Inhibitory Concentration (MIC) of the compound Cn1cc(NC(=O)c2sc3ccccc3c2Cl)cc1C(=O)Nc1cc(C(=O)NCCN2CCCCC2)n(CCN2CCOCC2)c1 [Compound 16] was ++ (++ = MIC ≦ 1)

The reported Minimum Inhibitory Concentration (MIC) of the compound Cn1cc(NC(=O)c2sccc2Cl)cc1C(=O)Nc1cc(-c2nc3ccc(C(=O)NCCN4CCOCC4)cc3[nH]2)n(C)c1 [Compound 12] was − (− = MIC > 2)

The reported Minimum Inhibitory Concentration (MIC) of the compound Cn1cc(NC(=O)c2cc3ccccc3cn2)cc1C(=O)Nc1cc(C(=O)Nc2cc(C(=O)NCCN3CCCCC3)ns2)n(C)c1 [Compound 19] was + (+ = MIC ≦ 2)

The reported Minimum Inhibitory Concentration (MIC) of the compound Cn1cc(NC(=O)c2cc(NC(=O)c3cc(NC(=O)c4cc5ccccc5cn4)cn3C)cn2C)cc1C(=O)NCCc1cccnc1 [Compound 14] was − (− = MIC > 2)

The reported Minimum Inhibitory Concentration (MIC) of the compound Cn1cc(NC(=O)c2cc(NC(=O)c3cc(NC(=O)c4sccc4Cl)cn3C)cn2C)cc1C(=O)NCCN1CCSCC1 [Compound 11] was − (− = MIC > 2)

The reported Minimum Inhibitory Concentration (MIC) of the compound Cn1cc(NC(=O)c2cc(NC(=O)CCNC(=O)c3cc(NC(=O)c4cc(NC(=O)c5cc(Br)c(Br)s5)cn4C)cn3C)cn2C)cc1C(=O)NCCC(=O)NCCN1CCCCC1 [Compound 3] was ++ (++ = MIC ≦ 1)

The reported Minimum Inhibitory Concentration (MIC) of the compound CCN(CC)CCCNC(=O)CCNC(=O)c1cc(NC(=O)c2cc(NC(=O)CCNC(=O)c3cc(NC(=O)c4cc(NC(=O)c5cc(Br)c(Br)s5)cn4C)cn3C)cn2C)cn1C [Compound 4] was ++ (++ = MIC ≦ 1)

Cited source: patent US20030199516A1
